Tested on: LoVo (CCL-229) cells
Test: Tumor cell anti-proliferation assay (CTG assay)
Format: cell-based
Details: LoVo human colorectal cancer cells, 96 h, CellTiter-Glo
IC50 strictly less than 20 nM = Criterion met. Otherwise Criterion not met.

1. Cc1cc(-c2nc(C)c3c(-c4ccnn4C)cc(N4CCOC[C@H]4C)nn23)[nH]n1	Criterion met
2. C[C@@H]1COCCN1c1cc(C2(S(C)(=O)=O)CC2)nc(Nc2cc(Cl)n[nH]2)n1	Criterion not met
3. Cc1cc(-c2nsc3c(C4(O)CCCC4)cc(N4CCOC[C@H]4C)nc23)[nH]n1	Criterion not met
4. Cc1cc(-c2nsc3c(-c4c(C)cnn4C)cc(N4CCOC[C@H]4C)nc23)[nH]n1	Criterion not met
5. Cc1cc(-c2nsc3c(C4(C#N)CCOCC4)cc(N4CCOC[C@H]4C)nc23)[nH]n1	Criterion met
6. Cc1cc(-c2nc(C)c3c(-c4c(C)nnn4C)cc(N4CCOC[C@H]4C)nn23)[nH]n1	Criterion not met
7. C[C@@H]1COCCN1c1cc(-c2ccnn2C)n2ncc(-c3ccn[nH]3)c2n1	Criterion not met
8. Cc1nnn(C)c1-c1cc(N2CCOC[C@H]2C)nc2c(-c3ccn[nH]3)nsc12	Criterion not met
9. Cc1cc(-c2cnn3c(-c4ccnn4C)cc(N4CCOC[C@H]4C)nc23)[nH]n1	Criterion not met
10. COC(=O)C1(c2cc(N3CCOC[C@H]3C)nc3c(-c4ccn[nH]4)nsc23)CCCC1	Criterion not met
11. Cc1cc(-c2nsc3c(C4(S(C)(=O)=O)CC4)cc(N4CCOC[C@H]4C)nc23)[nH]n1	Criterion met
12. Cc1nnn(C)c1-c1cc(N2CCOC[C@H]2C)nn2c(-c3ccn[nH]3)nc(C)c12	Criterion not met
13. Cc1cc(-c2nsc3c(C4(C(N)=O)CCCC4)cc(N4CCOC[C@H]4C)nc23)[nH]n1	Criterion met
14. C[C@@H]1COCCN1c1cc(-c2cccnc2C(F)(F)F)c2snc(-c3ccn[nH]3)c2n1	Criterion met
15. Cc1nc(-c2ccn[nH]2)n2nc(N3CC4CCC(C3)O4)cc(-c3ccnn3C)c12	Criterion not met
